- Assay name: small-molecule binders of probe aNOTCH3, primary screen, biochemical, small-molecule microarray, 635/667 nm fluorescence (AID 1120);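 note: probe is a biotin-tagged antibody raised against NOTCH3 rather than NOTCH3 protein; score merges spot fluorescence near 667 nm with spot signal to noise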
- Particulars: higher = more signal
Readout label: composite z-score
Reply with the value as a number alone.

Molecule: CCOC(=O)NN=C1C[C@@H](O)[C@@H](O)[C@@H]2[C@@H]3C(=O)N(C[C@@H]4CCCO4)C(=O)[C@@H]3CC[C@@H]12
Readout label: composite z-score
Number: 0.0927
//
Molecule: NCCCCCNC(=O)[C@@H]1C[C@@H]2C(=O)N3CCC[C@H]3C(=O)N2[C@@H]1c1cccc(OCCO)c1
Readout label: composite z-score
Number: 0.453
//
Molecule: Cc1ccc(F)cc1S(=O)(=O)N[C@@H]1CCN(Cc2ccc(CC(C)C)cc2)C1
Readout label: composite z-score
Number: -0.249
//
Molecule: CCOC(=O)NN=C1C[C@@H](O)[C@@H](O)[C@@H]2[C@@H]3C(=O)N(CC)C(=O)[C@@H]3CC[C@@H]12
Readout label: composite z-score
Number: -0.0864

Q: Quick one: composite z-score for CCCNC(=O)OC[C@H]1O[C@H](CCON=C[C@@H](OC)[C@H](C)C=CCC(=O)OC)C=C[C@@H]1Oc1ccc(OC)cc1 ?
A: 0.142

Q: Quick one: composite z-score for COc1ccc(O[C@H]2C=C[C@@H](c3ccccc3)O[C@@H]2COC(=O)CCC(C)=NOC[C@@H](C)[C@H](OCc2ccccc2)C(C)C)cc1 ?
A: -0.155

Q: Quick one: composite z-score for CC(C)(C)OC(=O)CC[C@]1(C(N)=O)COC(c2ccc(OCCCO)cc2)=N1 ?
A: 0.324

Q: Quick one: composite z-score for CCOC(=O)[C@H](Cc1ccccc1)NC(=O)CCC1CC(OC(=O)NCCc2ccc(F)cc2)CC2(CCCC(COC(=O)NCC(c3ccccc3)c3ccccc3)O2)O1 (stereo partly drawn) ?
A: -0.0893

Reference for the values: PubChem BioAssay
